Kd values by entry
# Assay System: FGFR1 (Homo sapiens, UniProt P11362)
# Construct: made in house; host or cells: E. coli (BL21-derived), T7 phage
# Sequence (P11362 22-822): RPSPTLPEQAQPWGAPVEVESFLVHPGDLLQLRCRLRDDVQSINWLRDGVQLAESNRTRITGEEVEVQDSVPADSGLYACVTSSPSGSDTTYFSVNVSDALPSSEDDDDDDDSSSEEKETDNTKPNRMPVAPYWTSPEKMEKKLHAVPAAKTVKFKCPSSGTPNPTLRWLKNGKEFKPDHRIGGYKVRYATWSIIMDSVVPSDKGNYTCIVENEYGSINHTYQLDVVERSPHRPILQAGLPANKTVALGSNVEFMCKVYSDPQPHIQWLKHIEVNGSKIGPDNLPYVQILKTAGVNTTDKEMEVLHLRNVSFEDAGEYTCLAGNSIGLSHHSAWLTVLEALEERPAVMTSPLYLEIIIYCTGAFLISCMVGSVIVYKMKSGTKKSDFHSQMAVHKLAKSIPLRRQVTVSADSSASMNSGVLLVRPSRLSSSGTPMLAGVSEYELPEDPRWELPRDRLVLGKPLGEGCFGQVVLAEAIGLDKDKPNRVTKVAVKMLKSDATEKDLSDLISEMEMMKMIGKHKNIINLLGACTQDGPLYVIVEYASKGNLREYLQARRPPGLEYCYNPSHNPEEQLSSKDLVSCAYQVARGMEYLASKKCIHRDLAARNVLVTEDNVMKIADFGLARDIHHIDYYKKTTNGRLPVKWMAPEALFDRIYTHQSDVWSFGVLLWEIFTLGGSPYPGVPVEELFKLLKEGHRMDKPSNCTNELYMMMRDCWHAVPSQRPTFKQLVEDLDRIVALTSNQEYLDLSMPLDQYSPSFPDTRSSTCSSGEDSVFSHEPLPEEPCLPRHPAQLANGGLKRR
# Assay Comment: Kinase binding assay (kinase-tagged T7 phage, affinity beads, qPCR), Kd
# Reported Conditions: read-out: FGFR1 (Kd nM)
Observable: Kd

{"Compound": "C[C@@H](Oc1ccc2[nH]nc(-c3cnc(N4CC(C)(NC(=O)CN(C)C)C4)c(F)c3)c2c1)c1c(Cl)cncc1Cl (stereo in doubt)", "Assay System": "FGFR1 (Homo sapiens, UniProt P11362)", "Result": "1 to 50 nM"}
{"Compound": "COc1cc2[nH]nc(-c3cnc(N4CC(C)(NCCO)C4)c(C#N)c3)c2cc1O[C@H](C)c1c(Cl)cncc1Cl", "Assay System": "FGFR1 (Homo sapiens, UniProt P11362)", "Result": "1 to 50 nM"}
{"Compound": "C[C@@H](Oc1cc2c(-c3ccc(N4CC(C)(CN5CCOCC5)C4)nc3)n[nH]c2cc1F)c1c(Cl)cncc1Cl", "Assay System": "FGFR1 (Homo sapiens, UniProt P11362)", "Result": "1 to 50 nM"}
{"Compound": "COc1cc2[nH]nc(-c3cnc(N4CC5(CC5)C4)nc3)c2cc1O[C@H](C)c1c(Cl)cncc1Cl", "Assay System": "FGFR1 (Homo sapiens, UniProt P11362)", "Result": "1 to 50 nM"}
{"Compound": "C[C@@H](Oc1ccc2[nH]nc(-c3cnc(N4CC(C)(CS(C)(=O)=O)C4)c(F)c3)c2c1F)c1c(Cl)cncc1Cl", "Assay System": "FGFR1 (Homo sapiens, UniProt P11362)", "Result": "> 1000 nM"}
{"Compound": "CCNC1(C)CN(c2ncc(-c3n[nH]c4ccc(O[C@H](C)c5c(Cl)cnc(C)c5Cl)cc34)cc2C#N)C1", "Assay System": "FGFR1 (Homo sapiens, UniProt P11362)", "Result": "50 to 300 nM"}
{"Compound": "C[C@@H](Oc1ccc2[nH]nc(-c3cnc(N4CC(C)(CN5CCOCC5)C4)c(F)c3)c2c1)c1c(Cl)cncc1Cl", "Assay System": "FGFR1 (Homo sapiens, UniProt P11362)", "Result": "1 to 50 nM"}

----------
# Test system: KG-1 cell line (FGFR 1-fusion)
# Assay Comment: Cancer cell line cell viability assay (Cell Titer-Glo), 72 hr
# Type: cell-based
# Reported Conditions: Homo sapiens, KG-1, KG-1 cell line (FGFR1-fusion)
pIC50: −log10 of the molar value.
Reported pIC50 values for the following molecules.
Observable: pIC50

{"Smiles Data": "CNC1(C)CN(c2ccc(-c3n[nH]c4cc(F)c(O[C@H](C)c5c(Cl)cncc5Cl)cc34)cn2)C1", "Assay System": "KG-1 cell line (FGFR 1-fusion)", "Result": "6.00 to 6.70"}
{"Smiles Data": "C[C@@H](Oc1ccc2[nH]nc(-c3cnc(N4CC(C)(CN5CCOCC5)C4)c(C#N)c3)c2c1)c1c(Cl)cncc1Cl", "Assay System": "KG-1 cell line (FGFR 1-fusion)", "Result": "6.00 to 6.70"}
{"Smiles Data": "Cc1ncc(Cl)c([C@@H](C)Oc2ccc3[nH]nc(-c4ccc(N5CC(C)(N(C)C)C5)nc4)c3c2)c1Cl", "Assay System": "KG-1 cell line (FGFR 1-fusion)", "Result": "6.00 to 6.70"}
{"Smiles Data": "C[C@@H](Oc1ccc2[nH]nc(-c3cnc(N4CC(C)(N5CCOCC5)C4)nc3)c2c1)c1c(Cl)cncc1Cl", "Assay System": "KG-1 cell line (FGFR 1-fusion)", "Result": "6.70 to 7.30"}
{"Smiles Data": "Cc1ncc(Cl)c([C@@H](C)Oc2ccc3[nH]nc(-c4cnc(N5CC(CC#N)(NCC6CC6)C5)c(F)c4)c3c2)c1Cl", "Assay System": "KG-1 cell line (FGFR 1-fusion)", "Result": "6.00 to 6.70"}
{"Smiles Data": "C=CCNC1(C)CN(c2ncc(-c3n[nH]c4cc(OC)c(O[C@H](C)c5c(Cl)cncc5Cl)cc34)cc2C#N)C1", "Assay System": "KG-1 cell line (FGFR 1-fusion)", "Result": "6.70 to 7.30"}
{"Smiles Data": "C[C@@H](Oc1ccc2[nH]nc(-c3cnc(N4CC(C)(N(C)C)C4)c(F)c3)c2c1)c1c(Cl)cncc1Cl", "Assay System": "KG-1 cell line (FGFR 1-fusion)", "Result": "6.70 to 7.30"}
{"Smiles Data": "Cc1ncc(Cl)c([C@@H](C)Oc2ccc3[nH]nc(-c4cnc(N5CC(C)(NCC6CC6)C5)c(F)c4)c3c2)c1Cl", "Assay System": "KG-1 cell line (FGFR 1-fusion)", "Result": "6.70 to 7.30"}
{"Smiles Data": "C[C@@H](Oc1ccc2[nH]nc(-c3ccc(N4CC(C)(NC(=O)CN(C)C)C4)nn3)c2c1)c1c(Cl)cncc1Cl", "Assay System": "KG-1 cell line (FGFR 1-fusion)", "Result": "7.30 to 10.00"}
{"Smiles Data": "C[C@@H](Oc1ccc2[nH]nc(-c3cnc(N4CC(C)(N5CC(C)(O)C5)C4)c(F)c3)c2c1)c1c(Cl)cncc1Cl", "Assay System": "KG-1 cell line (FGFR 1-fusion)", "Result": "7.30 to 10.00"}
